TEST_NAME: amyloid nucleation score (Sup35N fusion, yeast selection) (log enrichment); library NNK1; higher = more nucleation; inactive = no reads after selection;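 also: zero at mode of non-aggregating sequences after 7 days selection at 30°C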
PARAMETER: amyloid nucleation score
// return a plain number; no unit text

Past entries and their recorded results:
YGVMSLRGVRLVQDVKTRSF	-0.849
VYACLSHSVRV	1.05
QPKFLVCFA	0.101
YLCPFIYMAHSGSSDVCLIV	3.38
SLRSPWDRCSFRHFLPFFTM	-0.735

amyloid nucleation score lookup needed for YFVMITCFYVILL , thanks.
-0.126

amyloid nucleation score lookup needed for MDGALSVEFSWGLLSKTRLC , thanks.
-0.122

amyloid nucleation score lookup needed for TVWYITTLAGEFAA , thanks.
1.09

amyloid nucleation score lookup needed for RNSDFHFIFWY , thanks.
0.865

amyloid nucleation score lookup needed for EDFLYMCFRLSFVIIH , thanks.
3.42

amyloid nucleation score lookup needed for DGHKGEDSMAKLNFIFRLYS , thanks.
-0.33

amyloid nucleation score lookup needed for YFFITRAEVSDVVLLLCVCC , thanks.
-0.158

amyloid nucleation score lookup needed for LRHRKSRNRVSCHCLGHGCW , thanks.
1.54

amyloid nucleation score lookup needed for WQHFLFCKKKRVESCNVSTN , thanks.
1.02

amyloid nucleation score lookup needed for NRNKVR , thanks.
-0.2

amyloid nucleation score lookup needed for IGLMALLGLTRDR , thanks.
2.17

###

TEST_NAME: amyloid nucleation score (Sup35N fusion, yeast selection) (log enrichment); library NNK3; higher = more nucleation; inactive = no reads after selection
PARAMETER: amyloid nucleation score

Past entries and their recorded results:
GQSNMFCNWTFANVKRCNL	2.33
RWVICEFGR	inactive
FYICYLNPNQQLFVLN	1.27
RTLYMLRIALGHGPVTLEI	inactive
DCPLNNVTSLSHP	inactive
ISESKLMLTRWDGVFVTIWD	inactive
KKPPHRLTVLMTGIAM	inactive
NSTNMDSFGIPLNRILWMLN	inactive
CYRISSESWSTWWIYFWSCR	inactive
ARQYAIRWMWSVVIDGGEKS	inactive

amyloid nucleation score lookup needed for RCFIDLCFLDIIISFRYY , thanks.
inactive

amyloid nucleation score lookup needed for SFYSNFRESRDLSSYTLNIS , thanks.
inactive

amyloid nucleation score lookup needed for WWSYQGRLVGCGYMRTDNAP , thanks.
inactive

amyloid nucleation score lookup needed for NGWRCLTVWDLSLYHWGYFL , thanks.
inactive

amyloid nucleation score lookup needed for VRLVAMCWGHLDKNRALRRG , thanks.
inactive

amyloid nucleation score lookup needed for VWSVASYPSGPGKFCGGMTE , thanks.
inactive

amyloid nucleation score lookup needed for SFYVLIVQRCELMSVVVMES , thanks.
inactive

amyloid nucleation score lookup needed for LCIFKVLF , thanks.
0.969

amyloid nucleation score lookup needed for RMSRNMWFWLRLNSNYIVFS , thanks.
inactive

amyloid nucleation score lookup needed for MNRNVTSRVRTPPVCVRVRF , thanks.
inactive

amyloid nucleation score lookup needed for GCIMEEKFLRMDFDVVSEYN , thanks.
inactive

amyloid nucleation score lookup needed for NVLCSFYLMYGLTSAWSVS , thanks.
inactive

amyloid nucleation score lookup needed for NYVTLKSKGITMSWLLLDYR , thanks.
inactive

amyloid nucleation score lookup needed for FVASDLLFGVRDQSVFSLSQ , thanks.
inactive

amyloid nucleation score lookup needed for LDGFSSKILGMFEEAVVYRM , thanks.
inactive

amyloid nucleation score lookup needed for YNRFLVVSGMGMSFYGKQYM , thanks.
1.51

###

TEST_NAME: amyloid nucleation score (Sup35N fusion, yeast selection) (log enrichment); library NNK1; higher = more nucleation; inactive = no reads after selection
Some sequences, each annotated with its measured amyloid nucleation score.
// return a plain number; no unit text

RHVDRLVLWHEDSVAPGETN	0.394
GFYGCYSYVVLGGRVEP	-1.02
MSLMSRDVVMHIGMSWYSRG	4.21
AESLWQFTWQVTKPHEEGSE	4.35
YVESGTFTDPRFWVSFAVCF	0.791

amyloid nucleation score lookup needed for WTMLDMFLFS , thanks.
-0.872

amyloid nucleation score lookup needed for CMVMFCCWNMWVDSVH , thanks.
7.24

amyloid nucleation score lookup needed for YAFRSRHRSFSFIGTLMVFD , thanks.
0.55

amyloid nucleation score lookup needed for GSQMYNVHVVCVT , thanks.
0.154

###

TEST_NAME: amyloid nucleation score (Sup35N fusion, yeast selection) (log enrichment); library NNK3; higher = more nucleation; inactive = no reads after selection
PARAMETER: amyloid nucleation score

GNDVGSMFESRN	inactive
CYYDEVFAFLSLMTFRIQNK	inactive
TITCCVYDN	2.13
LRYWWLDLTYYL	inactive

amyloid nucleation score lookup needed for SLRPGLVLVIERNEFKS , thanks.
inactive

amyloid nucleation score lookup needed for SSQLDHVRLSGYVLTLEGPF , thanks.
inactive

amyloid nucleation score lookup needed for CCIYQHIFYMRTYCIRT , thanks.
inactive

amyloid nucleation score lookup needed for IVLIKSILDANEEGT , thanks.
inactive

###

TEST_NAME: amyloid nucleation score (Sup35N fusion, yeast selection) (log enrichment); library NNK3; higher = more nucleation; inactive = no reads after selection
PARAMETER: amyloid nucleation score

STKSSLRYNLEQLPDLLKIV	inactive
MIDIKCNERAFSEYRFWCRW	0.141
LCLVLWVSK	inactive
AIIVCDC	inactive
VNRKLWGT	inactive

amyloid nucleation score lookup needed for AHFLLCNLA , thanks.
inactive

amyloid nucleation score lookup needed for GNFINHT , thanks.
inactive

amyloid nucleation score lookup needed for QTYMTLHETVRLWARMLSC , thanks.
inactive

amyloid nucleation score lookup needed for VCHGRSNHA , thanks.
inactive

amyloid nucleation score lookup needed for VQSTVVQVGDWY , thanks.
inactive

amyloid nucleation score lookup needed for AVRVEVLGLWYHLKCCWCFL , thanks.
-0.755

amyloid nucleation score lookup needed for LSSFNDDMNGVTFYPSISLD , thanks.
inactive

amyloid nucleation score lookup needed for LLRHDLYRVCTNRV , thanks.
inactive

amyloid nucleation score lookup needed for SPNNTTFSHYRFCLL , thanks.
inactive

###

TEST_NAME: amyloid nucleation score (Sup35N fusion, yeast selection) (log enrichment); library NNK2; higher = more nucleation; inactive = no reads after selection
Grouping key: amyloid nucleation score. Bins: LOW: < -0.1; MEDIUM: ≥ -0.1 and < 4; HIGH: ≥ 4

Consider the worked cases shown below.
VGVYICFILGH	MEDIUM
LVRLFS	LOW
CEVSGYARWLGQHYWSAVRA	MEDIUM
VDHYTETTRL	MEDIUM
LIAFMRF	HIGH

Lab note: which band did SCSWCMLVPRGGVGVPKG land in?
MEDIUM

Lab note: which band did LQTQFTAVC land in?
MEDIUM

Lab note: which band did TWNISILHCI land in?
HIGH

Lab note: which band did WDQCLMLMCPNE land in?
LOW

Lab note: which band did RHTSMSGCMTVIMTGCEIPR land in?
MEDIUM

###

TEST_NAME: amyloid nucleation score (Sup35N fusion, yeast selection) (log enrichment); library NNK2; higher = more nucleation; inactive = no reads after selection
Grouping key: amyloid nucleation score. Bins: low = under -0.1, mid = from -0.1 up to 1, high = 1 and over

Lab note: which band did RVGTLSWTRAFVFLGYGMVQ land in?
mid

Lab note: which band did GSPIESGVFNANLWPYDAYG land in?
low

###

TEST_NAME: amyloid nucleation score (Sup35N fusion, yeast selection) (log enrichment); library NNK2; higher = more nucleation; inactive = no reads after selection
Given measured amyloid nucleation score, output True if it is greater than or equal to 0.9 and False if not.

Consider the worked cases shown below.
MFIMFIAVSFVGRMYGGHRH	False
SVFSYQYETKVGSQNLLEYI	False
ALGSRINYQKGLMQNRTGKG	False
GYCLSVTSR	False
EFVISKNSVPSPCRCW	False

Say whether SRVSLYQML shows amyloid nucleation score of 0.9 or more.
False

Say whether LKWVTFEST shows amyloid nucleation score of 0.9 or more.
False

Say whether VRYDCYMPDMCFSRDHCWFE shows amyloid nucleation score of 0.9 or more.
False

Say whether FSYNMACLNKLLSLSLYRFS shows amyloid nucleation score of 0.9 or more.
False

Say whether SLVLLNRSANWIDLLNKQQD shows amyloid nucleation score of 0.9 or more.
True

###

TEST_NAME: amyloid nucleation score (Sup35N fusion, yeast selection) (log enrichment); library NNK2; higher = more nucleation; inactive = no reads after selection
Given measured amyloid nucleation score, output Fulfilled if it is greater than or equal to 0.1 and Not fulfilled if not.

Consider the worked cases shown below.
DAFWCYVDTLYMNRPSQ	Fulfilled
IIPRMLDMPLSVWQEIIRFW	Fulfilled
IFWAYAICCIYGLRGCRGEY	Fulfilled
FVGCVNLRLCSSITTAWSSL	Fulfilled
AGPWGVSTFYAVHLLASLYP	Not fulfilled

Say whether RALLCGSDVSKRNHGRSFVF shows amyloid nucleation score of 0.1 or more.
Not fulfilled

Say whether MFWRITGAI shows amyloid nucleation score of 0.1 or more.
Fulfilled

Say whether CSLVAPGTYYYGEWFPGQMS shows amyloid nucleation score of 0.1 or more.
Not fulfilled

Say whether YRFRVLCQVCNHGLRYKFFT shows amyloid nucleation score of 0.1 or more.
Fulfilled

Say whether LGCMNDNMSNYYCGHR shows amyloid nucleation score of 0.1 or more.
Not fulfilled

Say whether KITAGSGVL shows amyloid nucleation score of 0.1 or more.
Fulfilled

Say whether SCSIKSSTVVEDPF shows amyloid nucleation score of 0.1 or more.
Not fulfilled

Say whether INPSWVSCVHFM shows amyloid nucleation score of 0.1 or more.
Not fulfilled

Say whether DVIYNERTYLLFLTPHTMVV shows amyloid nucleation score of 0.1 or more.
Not fulfilled

Say whether HMSCMSLSVIFDIILNLCSL shows amyloid nucleation score of 0.1 or more.
Fulfilled

Say whether CSLMNNRVHFVWSHRRMSGT shows amyloid nucleation score of 0.1 or more.
Fulfilled

Say whether GLYRGTLVYKTYVLGNNKPL shows amyloid nucleation score of 0.1 or more.
Not fulfilled

Say whether IKNLRNQGK shows amyloid nucleation score of 0.1 or more.
Not fulfilled

Say whether DAMFFKCRMYRAVGRFFREG shows amyloid nucleation score of 0.1 or more.
Not fulfilled
